target or system: TRPA1 (Homo sapiens, UniProt O75762)
Sequence (O75762 whole entry): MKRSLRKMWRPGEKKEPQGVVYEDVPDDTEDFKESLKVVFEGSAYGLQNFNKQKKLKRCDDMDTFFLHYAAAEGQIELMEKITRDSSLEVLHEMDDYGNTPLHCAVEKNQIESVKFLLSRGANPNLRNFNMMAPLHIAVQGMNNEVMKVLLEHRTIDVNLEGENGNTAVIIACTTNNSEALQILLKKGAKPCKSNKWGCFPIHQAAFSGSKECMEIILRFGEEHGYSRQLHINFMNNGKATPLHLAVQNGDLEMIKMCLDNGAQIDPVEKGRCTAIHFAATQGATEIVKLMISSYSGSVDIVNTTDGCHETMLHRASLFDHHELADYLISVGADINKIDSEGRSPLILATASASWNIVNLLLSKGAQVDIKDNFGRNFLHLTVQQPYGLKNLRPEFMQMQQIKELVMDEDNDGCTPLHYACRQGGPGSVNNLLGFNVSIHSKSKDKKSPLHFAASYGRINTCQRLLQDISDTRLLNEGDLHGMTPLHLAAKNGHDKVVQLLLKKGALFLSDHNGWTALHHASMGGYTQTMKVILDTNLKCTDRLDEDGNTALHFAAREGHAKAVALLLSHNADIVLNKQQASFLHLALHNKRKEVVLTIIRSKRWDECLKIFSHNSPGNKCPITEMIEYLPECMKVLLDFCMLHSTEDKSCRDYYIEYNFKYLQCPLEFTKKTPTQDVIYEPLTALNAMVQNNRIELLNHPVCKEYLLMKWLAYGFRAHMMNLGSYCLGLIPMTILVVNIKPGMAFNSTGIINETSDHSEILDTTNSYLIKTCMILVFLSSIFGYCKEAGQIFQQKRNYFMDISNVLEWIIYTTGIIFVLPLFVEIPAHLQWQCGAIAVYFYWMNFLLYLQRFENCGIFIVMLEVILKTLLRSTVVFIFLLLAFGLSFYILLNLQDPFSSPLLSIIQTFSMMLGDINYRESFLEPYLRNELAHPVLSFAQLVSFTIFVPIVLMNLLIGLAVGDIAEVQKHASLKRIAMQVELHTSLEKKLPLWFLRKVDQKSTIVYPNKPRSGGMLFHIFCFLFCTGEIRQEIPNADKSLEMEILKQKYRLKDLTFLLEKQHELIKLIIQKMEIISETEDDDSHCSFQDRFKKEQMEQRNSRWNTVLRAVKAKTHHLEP
assay protocol: Citric acid-induced Ca+2 influx in A549 cells
Type: cell-based
Design: A549 cells have been reported to express endogenous TRPA1; host or cells: A549
experimental setup: antagonist added 15 minutes prior to agonist, read-out: IC50, inhibition of citric acid induced Ca+2 influx
endpoint: pIC50
Hey, just a heads up that pIC50 is the negative log base 10 of the concentration in molar.

# pIC50 lookup, item Cn1c(=O)c2c(CC(=O)Nc3nc(-c4ccc(F)c(C(F)(F)F)c4F)cs3)csc2n(C)c1=O
8.30

====

target or system: TRPA1 (Homo sapiens, UniProt O75762)
assay protocol: Citric acid-induced Ca+2 influx in hTRPA1/CHO cells
Format: cell-based
Design: expressed in transfected cells
experimental setup: antagonist added 15 minutes prior to agonist, read-out: IC50, inhibition of citric acid induced Ca+2 influx
endpoint: IC50

Any idea what IC50 came out for Cn1c(=O)c2c(CC(=O)Nc3nc(-c4ccc(F)c(C(F)(F)F)c4F)cs3)csc2n(C)c1=O [GRC 17536] on TRPA1 (Homo sapiens, UniProt O75762)?
4.6 nM

Cited source: paper PMC4018403
